RP-LC retention time: recorded values
experiment: gradient 5% acetonitrile 3 min, to 50% in 2 min, to 85% in 15 min, held 3 min, 100 µL/min; settings: column: Zorbax Extend-C18 2.1 x 50 mm; eluents: water / acetonitrile, 0.1% formic acid
parameter: RP-LC retention time (s)

* O=C(NCCCN1CCCC1=O)c1ccc(CN2CC(=O)N3CCCC3C2=O)cc1 (centres undefined) | 583
* CC(C)(C)NC(=O)N1CCC(OC2CCN(Cc3ccccc3)CC2)CC1 | 625
* O=C(CSc1ccc(N2CCN(c3ccc(F)cc3)CC2)nn1)NCc1ccco1 | 873
* CCOC(=O)c1cn(Cc2ccccc2)c2ccccc2c1=O | 769

###

assay: gradient 5% acetonitrile 3 min, to 50% in 2 min, to 85% in 15 min, held 3 min, 100 µL/min; settings: column: Zorbax Extend-C18 2.1 x 50 mm; eluents: water / acetonitrile, 0.1% formic acid
parameter: RP-LC retention time (s)

• CCOC(=O)C1=C(C)N(CC(=O)NC2CCCC2)c2ncnn2C1c1ccccc1 (stereo not given) = 666
• O=C(Nc1cnc(N2CCOCC2)nc1)c1ccc(Br)cc1 = 810
• CCOc1ccc(-c2cc(SCc3cccnc3)ncn2)cc1 = 690
• CCn1c(=O)c2cc(C(=O)Nc3cccc(C(F)(F)F)c3)nn2c2ccccc21 = 1080
• CCCn1c(C)cnc1C1CN(S(=O)(=O)c2cccc(Cl)c2)C1 = 669
• COc1ccc(C2Cn3cnc(-c4nc(-c5ccc6c(c5)OCO6)no4)c3CO2)cc1 (stereo not given) = 1000
• COc1ccc(CCN2CN=C(Nc3nc(C)c4cc(C)ccc4n3)NC2)cc1OC = 722
• Cc1noc(C)c1CN1CCN(C(=O)Cn2c(=O)oc3ccccc32)CC1 = 550
• CCCCn1cnc2c(-c3ccccc3)cn(CC(=O)N3CCCC3)c2c1=O = 836
• CC1CCCN(c2ccc(NC(=O)Cc3cccs3)c(C(=O)O)c2)C1 (stereo not given) = 685
• Cc1cc(C)n(-c2ccnc(NCCc3cccnc3)n2)n1 = 584
• O=C(c1ccc2c(c1)OCO2)N1CCN(c2cc(-c3cccs3)[nH]n2)CC1 = 732
• CCCc1ccc(S(=O)(=O)N2CCN(c3cnn4c(C)nnc4c3)CC2)cc1 = 805
• Cc1ccc(CNC(=O)CCC2CCN(c3cc(NC4CC4)ncn3)CC2)cc1 = 714
• Clc1cc2c(c(CN3CCN(c4ccccc4)CC3)c1)OCOC2 = 584
• COc1ccc(CN2CC3(CCN(S(=O)(=O)c4c(C)nn(C)c4C)CC3)C2=O)cc1 = 761
• Oc1c(C(Nc2cccc(Cl)c2)c2cccnc2)ccc2cccnc12 (stereo not given) = 692
• Cc1ccc(-c2c(C(=O)NCC3CCCO3)nc3ccccn23)cc1 (stereo not given) = 730
• COc1cccc(NC(=O)Cn2nc3c(Oc4ccccc4C)nccn3c2=O)c1 = 866
• Cn1c(=O)n(C)c2cc(N3CCOCC3)c(NC(=O)NCc3cccc(F)c3)cc21 = 705
• CC1CCN(c2ncnc3c2cnn3CC(=O)Nc2ccc(Cl)cc2)CC1 = 697
• COCCNCc1c(C(=O)O)c(C)n(Cc2cccc(Cl)c2)c1C = 679
• CN(C)C(=O)c1ccc2c(c1)N(CC(=O)N1CCN(C(=O)c3ccco3)CC1)C(=O)C1CCCCN21 (stereo not given) = 667
• Cc1nc2cccnc2n1-c1cccc(C(=O)N2CCN(c3ccccn3)CC2)c1 = 568
• C=CCN(C(=O)C1CCCN(c2ncnc3c2nc2n3CCCCC2)C1)c1ccccc1 (stereo not given) = 864
• CCOc1ccccc1-c1noc(Cn2c(=O)n(-c3ccc(F)cc3)c(=O)c3sccc32)n1 = 956
• COc1ccccc1N1CCN(CC(=O)NC2CCSC2=O)C1=O (stereo not given) = 621
• Cc1cccc(NC(=O)Cc2nnc(-c3cnccn3)o2)c1C = 678
• Cn1c(=O)c2c(ncn2CC(=O)N2CCCn3nc(-c4cccc(F)c4)cc3C2)n(C)c1=O = 677
• O=S(=O)(c1ccc2nc(N3CCN(c4ccc(F)cc4)CC3)ccc2c1)N1CCOCC1 = 890

###

test: gradient 5% acetonitrile 3 min, to 50% in 2 min, to 85% in 15 min, held 3 min, 100 µL/min; conditions: column: Zorbax Extend-C18 2.1 x 50 mm; eluents: water / acetonitrile, 0.1% formic acid
Lab note - cut at 900 s for RP-LC retention time: true (1) if strictly below, false (0) if not.

- O=C(Cn1cc2c(n1)CCCC2)N1CCC(Cc2ccccc2)CC1: false (0)
- CCC(C(=O)Nc1ccc2c(c1)OCCO2)n1cnc2nc3c(cc2c1=O)CCCC3 (stereo not drawn): true (1)
- CCn1ccc2c(cc(C(=O)Nc3cccc(F)c3)n2C)c1=O: true (1)
- O=C(Cc1ccsc1)NCCC1CCN(C(=O)Nc2ccccc2)CC1: true (1)
- Fc1cccc(-c2noc(-c3cc(N4CCOCC4)nc4ccccc34)n2)c1: false (0)
- COc1ccc(-c2noc(C3CC(=O)N(c4ccc(C(C)C)cc4)C3)n2)cc1OC (stereo not drawn): true (1)

###

RP-LC retention time: recorded values
assay: gradient 5% acetonitrile 3 min, to 50% in 2 min, to 85% in 15 min, held 3 min, 100 µL/min; details: column: Zorbax Extend-C18 2.1 x 50 mm; eluents: water / acetonitrile, 0.1% formic acid
parameter: RP-LC retention time (s)

- CCSc1nnc(NC(=O)CSc2nn3c(=O)c(C)nnc3s2)s1: 640
- CCOC(=O)c1noc2ncnc(Nc3cccc(CC)c3)c12: 1060
- O=C(NCCN1CCN(Cc2ccccc2)CC1)c1cc(=O)n2c(nc3ccccc32)s1: 649
- Cc1ccn2cc(-c3ccc(NC(=O)c4cccs4)cc3)nc2n1: 636
- Cc1ccn(S(=O)(=O)c2ccc(C(C)(C)C)cc2)n1: 983
- CCc1cccc(NC(=O)Cn2ccc3ccc(-c4nnc(C)o4)cc32)c1: 798
- O=C(NC1CCCCC1)C1CCCN(C(=O)c2cc(-c3ccccn3)n[nH]2)C1 (stereo not drawn): 659
- CCOC(=O)c1[nH]c(C)c(CCC(=O)N2CCC(C(=O)NC3CCCCCC3)CC2)c1C: 823

###

RP-LC retention time: recorded values
experiment: gradient 5% acetonitrile 3 min, to 50% in 2 min, to 85% in 15 min, held 3 min, 100 µL/min; conditions: column: Zorbax Extend-C18 2.1 x 50 mm; eluents: water / acetonitrile, 0.1% formic acid
parameter: RP-LC retention time (s)

* COc1ccc(C(=O)N2C[C@@H]3C[C@H](NC(=O)c4cccs4)[C@H]2C3)cn1 | 679
* Cc1sc2ccn(C)c(=O)c2c1C(=O)NC1CCCCC1 | 716
* Cc1cccc(Nc2c(-c3ccc(O)cc3)nc3ncccn23)c1 | 700

###

assay: gradient 5% acetonitrile 3 min, to 50% in 2 min, to 85% in 15 min, held 3 min, 100 µL/min; details: column: Zorbax Extend-C18 2.1 x 50 mm; eluents: water / acetonitrile, 0.1% formic acid
parameter: RP-LC retention time

• CC(CCc1ccccc1)NC(=O)C1CCN(C(=O)C2Sc3ccccc3NC2=O)CC1 (stereo not drawn) = 811 s
• CCN1C(=O)c2cc(C(=O)Nc3ccccc3C)nn2CC1(C)C(=O)NC1CCCC1 (stereo not drawn) = 807 s
• CCN1c2ccccc2C(=O)NC12CCN(C(=O)Nc1ccccc1OC)CC2 = 781 s

###

RP-LC retention time: recorded values
assay: gradient 5% acetonitrile 3 min, to 50% in 2 min, to 85% in 15 min, held 3 min, 100 µL/min; settings: column: Zorbax Extend-C18 2.1 x 50 mm; eluents: water / acetonitrile, 0.1% formic acid
parameter: RP-LC retention time

- Cc1cc(Br)ccc1NC(=O)Cn1cnc2nc3c(cc2c1=O)CCCC3: 777 s
- COc1ccc(S(=O)(=O)N2CCC(n3cnnc3C)CC2)cc1Cl: 694 s
- O=C(c1nnn(-c2ccccc2Cl)c1-c1ccncc1)N1CCCC1: 716 s
- COc1ccc(C(=O)N2CCN(S(=O)(=O)c3cc4c5c(c3)CCC(=O)N5CCC4)CC2)cc1: 779 s

###

test: gradient 5% acetonitrile 3 min, to 50% in 2 min, to 85% in 15 min, held 3 min, 100 µL/min; details: column: Zorbax Extend-C18 2.1 x 50 mm; eluents: water / acetonitrile, 0.1% formic acid
RP-LC retention time: recorded values
parameter: RP-LC retention time (s)

- CNC(=O)C1CCCN(c2nc3ncn(CC(=O)N4CCc5ccccc5C4)c(=O)c3s2)C1 (stereo unspecified): 666
- CC(C)NC(=O)c1ccc(-c2nc3cc(NS(=O)(=O)Cc4cccc(F)c4)ccc3n2C)cc1: 687
- CCc1ccc(C(=O)N2CCC3(C2)C(=O)Nc2ccccc23)cc1 (stereo unspecified): 769
- CC(C)N1C(=O)C2(CCCC2)C1C(=O)NCC1CCCCC1 (stereo unspecified): 775
- CCn1c(CN(C)C(=O)Nc2ccc(Br)cc2)nc2cc(C(=O)N(C)C)ccc21: 657
- Cc1ccc(CNC(=O)C2(C)CCCN(C(=O)Nc3cccc(C)c3)C2)cc1 (stereo unspecified): 967
